# Tested on: COLO 205 colon
# Experiment notes: NCI tumour cell line growth inhibition, 48 h
GI50 values by entry
Quantity: GI50

>>> experimental_result("Cc1cc(C)c(O)c(CN(C)Cc2cc(Cl)cc(Cl)c2O)c1")
"4.99 µM"
>>> experimental_result("Cc1ccc(-c2cc(C3=CC(=O)C=CC3=O)n(-c3ccc(S(N)(=O)=O)cc3)n2)cc1")
"53.9 µM"
>>> experimental_result("O=C(c1ccco1)c1c(C(F)(F)F)n([O-])c2ccccc2[n+]1=O")
"3.32 µM"
>>> experimental_result("COc1cc(-c2nc3sc4c(c3c(=O)[nH]2)CCCCCC4)cc(OC)c1OC")
"1.16 µM"
>>> experimental_result("COc1ccccc1/C=N\\N=C(N/N=C/c1ccccc1OC)N/N=C/c1ccccc1OC")
"2.11 µM"
>>> experimental_result("CC(=O)O/N=C1/C(c2c(O)[nH]c3cc(Br)ccc23)=Nc2ccccc21")
"1.57 µM"
>>> experimental_result("C=CCC(N[C@H](CO)c1ccccc1)c1cn(C(=O)OCC)c2ccccc12 (stereo partly specified)")
"19.5 µM"
>>> experimental_result("Cc1cc(Cc2cc(C)cc(C(C)(C)C)c2O)c(O)c(C(C)(C)C)c1")
"6.73 µM"
>>> experimental_result("Cc1ccc2c(O)c(O)cc(NC(C)CCCN)c2n1 (stereo unspecified)")
"3.39 µM"
>>> experimental_result("O=C(O)c1cc2cc(OCc3ccccc3)c(OCc3ccccc3)cc2[nH]1")
"19.9 µM"
>>> experimental_result("O=C(N/N=C/c1cc(Cl)cc(Cl)c1[O-])c1ccccc1O.O=C(N/N=C/c1cc(Cl)cc(Cl)c1[O-])c1ccccc1O.[Ni+2]")
"0.794 µM"
